Target: EGFR L858R (Homo sapiens, UniProt P00533, L858R)
Sequence (P00533 25-1210 L858R): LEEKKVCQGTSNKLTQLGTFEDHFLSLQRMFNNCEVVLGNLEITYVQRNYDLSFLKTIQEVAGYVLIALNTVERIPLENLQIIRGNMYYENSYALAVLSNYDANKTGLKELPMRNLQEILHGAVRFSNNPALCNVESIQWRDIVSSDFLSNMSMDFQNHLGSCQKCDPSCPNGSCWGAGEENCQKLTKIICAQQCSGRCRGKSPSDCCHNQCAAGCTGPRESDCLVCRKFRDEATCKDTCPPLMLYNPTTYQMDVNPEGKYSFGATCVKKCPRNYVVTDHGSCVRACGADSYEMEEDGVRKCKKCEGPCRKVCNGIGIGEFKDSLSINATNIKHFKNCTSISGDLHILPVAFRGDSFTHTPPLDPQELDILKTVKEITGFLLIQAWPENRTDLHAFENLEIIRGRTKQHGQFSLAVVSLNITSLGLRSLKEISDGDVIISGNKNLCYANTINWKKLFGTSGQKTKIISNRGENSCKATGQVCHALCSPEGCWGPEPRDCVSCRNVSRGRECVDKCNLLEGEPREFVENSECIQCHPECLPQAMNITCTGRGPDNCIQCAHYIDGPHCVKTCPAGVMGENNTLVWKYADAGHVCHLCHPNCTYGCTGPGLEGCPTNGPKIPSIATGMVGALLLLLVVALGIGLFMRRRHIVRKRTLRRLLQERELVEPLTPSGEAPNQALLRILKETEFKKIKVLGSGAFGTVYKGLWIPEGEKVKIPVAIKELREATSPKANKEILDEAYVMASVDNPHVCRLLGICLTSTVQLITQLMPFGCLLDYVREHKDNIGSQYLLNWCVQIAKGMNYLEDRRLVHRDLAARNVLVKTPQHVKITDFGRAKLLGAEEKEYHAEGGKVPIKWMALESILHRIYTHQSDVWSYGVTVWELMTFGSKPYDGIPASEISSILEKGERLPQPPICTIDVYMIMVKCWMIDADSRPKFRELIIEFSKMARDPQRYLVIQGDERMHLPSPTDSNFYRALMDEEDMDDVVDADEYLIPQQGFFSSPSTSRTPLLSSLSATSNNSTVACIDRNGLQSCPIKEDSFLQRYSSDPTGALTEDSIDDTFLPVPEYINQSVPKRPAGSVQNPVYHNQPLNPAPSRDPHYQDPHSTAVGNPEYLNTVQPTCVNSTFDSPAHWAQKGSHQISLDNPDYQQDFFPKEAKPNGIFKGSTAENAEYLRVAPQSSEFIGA
Test: EGFR degradation, Total EGFR (L858R-specific) HTRF, NCI-H3255
Format: cell-based
Design: NCI-H3255 (harboring EGFR heterozygous L858R mutation); host or cells: NCI-H3255
Settings: Table 9A; NCI-H3255 cells, 6 hours, Total EGFR HTRF; read-out: H3255 EGFR DC50
measure: DC50

molecule	observedMeasurement
Cn1nc(N2CCC(=O)NC2=O)c2ccc([C@H]3CCN(CC(=O)N4CC5(C4)CN(c4ccc(-c6cc(F)c7c(c6)C(=O)N(C(C(=O)Nc6nccs6)c6ncn8c6CCC8)C7)cc4)C5)CC3(F)F)cc21 (stereo partly drawn)	< 50 nM
O=C1CCC(Nc2ccc(C3CCN(CC(=O)N4CCN(c5ccc(-c6cc(F)c7cn(C(C(=O)Nc8nccs8)c8ncn9c8CCC9)nc7c6)cn5)CC4)CC3)nc2)C(=O)N1 (stereo not drawn)	< 50 nM
O=C1CCC(Nc2ccc(C3CCN(CC(=O)N4CCN(c5ccc(-c6cc(F)c7c(c6)C(=O)N(C(C(=O)Nc6ccccn6)c6ncn8c6CCC8)C7)cc5)CC4)CC3)c(F)c2)C(=O)N1 (stereo not drawn)	< 50 nM
